# System: Pseudomonas aeruginosa MTCC 1688
# PROTOCOL NOTES: Antibacterial activity, Mueller Hinton Broth microdilution MIC
# Assay type: cell-based
# CONDITION PARAMETERS: ratio of MIC values vs Ampicillin (MIC 100 μg mL^−1)
Residues, ends and D or L forms follow the SMILES beside them.
Listed here: items and their measured Potency relative to standard drug Ampicillin against P. aeruginosa.
Numeric answer only, unit times assumed.

INSERT INTO assay_data (compound, units_symbol, test_result) VALUES
  ('CC(C)[C@H](N)C(=O)N[C@@H](CS)C(=O)N1CCC[C@H]1C(=O)N[C@@H](Cc1c[nH]cn1)C(=O)N[C@@H](CCCNC(=N)N)C(=O)N[C@@H](CS)C(=O)O [Compound 7c, H-Val-Cys-Pro-His-Arg-Cys-OH] (H-VCPHRC-OH)', 'times', 2),
  ('C[C@H](N)C(=O)N[C@@H](CS)C(=O)N1CCC[C@H]1C(=O)N[C@@H](Cc1c[nH]cn1)C(=O)N[C@@H](CCCNC(=N)N)C(=O)N[C@@H](CS)C(=O)O [Compound 7b, H-Ala-Cys-Pro-His-Arg-Cys-OH] (H-ACPHRC-OH)', 'times', 2),
  ('CC(C)C[C@H](N)C(=O)N[C@@H](CS)C(=O)N1CCC[C@H]1C(=O)N[C@@H](Cc1c[nH]cn1)C(=O)N[C@@H](CCCNC(=N)N)C(=O)N[C@@H](CS)C(=O)O [Compound 7d, H-Leu-Cys-Pro-His-Arg-Cys-OH] (H-LCPHRC-OH)', 'times', 2.5);

Could you now look at the following compound, please?
Exam item: Given N=C(N)NCCC[C@H](NC(=O)[C@H](Cc1c[nH]cn1)NC(=O)[C@@H]1CCCN1C(=O)[C@H](CS)NC(=O)[C@@H](N)Cc1ccc(O)cc1)C(=O)N[C@@H](CS)C(=O)O [Compound 7f, H-Tyr-Cys-Pro-His-Arg-Cys-OH] (H-YCPHRC-OH) , state its recorded Potency relative to standard drug Ampicillin against P. aeruginosa.
Marked response: 2
